System: Trypanosoma brucei Lister 427 VSG221 with APOL1 G0 recombinant protein
Assay: APOL1 G0 trypanosome cell rescue assay (Example B5)
Type: cell-based
Details: read-out: APOL1 G0 Trypanosome Rescue EC50; Trypanosoma brucei Lister 427 VSG221 with APOL1 G0 recombinant protein, 20 hours, CellTiter-Glo; geometric mean of at least 2 assay runs; † = single assay run
The entries below come with measured EC50 values attached.
property.name: EC50

* CC(O)c1ncc(OCCN2CCC3(CC2)C(=O)Nc2ccc(C#N)cc23)cc1C(F)(F)F (single isomer, unassigned) [Compound 376] | 95.6 nM
* CC(c1ncc(OCCN2CCC3(CC2)C(=O)Nc2ccc(Cl)cc23)cn1)S(C)(=O)=O (single isomer, unassigned) | 248 nM
* O=C1NCC2c3ccc(OCCN4CCC5(CC4)C(=O)Nc4ccc(Cl)cc45)cc3CCN12 (single isomer, unassigned) [Compound 116] | 149 nM

====

Tested on: Trypanosoma brucei Lister 427 VSG221 with APOL1 G1 recombinant protein
Assay: APOL1 G1 trypanosome cell rescue assay (Example B5)
Format: cell-based
Conditions: read-out: APOL1 G1 Trypanosome Rescue EC50; Trypanosoma brucei Lister 427 VSG221 with APOL1 G1 recombinant protein, 20 hours, CellTiter-Glo; geometric mean of at least 2 assay runs; † = single assay run
The entries below come with measured EC50 values attached.
property.name: EC50 (nM)

• CC(O)c1ncc(OCCN2CCC3(CC2)C(=O)Nc2ccc(C(F)F)cc23)cc1C(F)(F)F (single isomer, unassigned) [Compound 288] = 36.1
• CC(c1c(F)cc(OCCN2CCC3(CC2)C(=O)Nc2ccc(Cl)cc23)cc1F)S(C)(=O)=O (single isomer, unassigned) [Compound 143] = 64.1
• CC1(O)CC(c2ncc(OCCN3CCC4(CC3)C(=O)Nc3ccc(Cl)cc34)cn2)C1 (single isomer, unassigned) [Compound 392] = 79.4

====

Target: APOL1 G2 (Homo sapiens, UniProt O14791, DEL388-389)
Construct: expressed in transfected cells; host or cells: HEK293 T-REx clonal line stably expressing GCaMP6f (HEK T-REx/GCaMP6f/APOL1 G2 K6.3), doxycycline induced
Sequence (O14791 with tags, fused parts or gaps DEL388-389): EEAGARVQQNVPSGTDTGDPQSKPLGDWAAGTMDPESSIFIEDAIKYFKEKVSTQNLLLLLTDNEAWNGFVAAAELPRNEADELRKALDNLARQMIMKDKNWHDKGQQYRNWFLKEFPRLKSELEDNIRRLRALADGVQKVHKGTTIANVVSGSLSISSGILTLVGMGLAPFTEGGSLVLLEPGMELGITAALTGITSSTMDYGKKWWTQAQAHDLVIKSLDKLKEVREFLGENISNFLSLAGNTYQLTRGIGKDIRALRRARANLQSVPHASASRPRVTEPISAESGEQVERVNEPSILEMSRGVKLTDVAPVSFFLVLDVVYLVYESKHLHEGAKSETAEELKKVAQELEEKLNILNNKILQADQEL
Assay: APOL1-mediated calcium transport (calcium influx) assay, HEK T-REx/GCaMP6f/APOL1 G2 K6.3 cells, FLIPR TETRA
Format: cell-based
Conditions: prevention of calcium influx; geometric mean of at least 2 assay runs; † = average of a technical replicate from a single assay run
The entries below come with measured AC50 values attached.
property.name: AC50 (nM)

- CN(C)C(=O)C1(S(=O)(=O)c2ccc(OCCN3CCC4(CC3)C(=O)Nc3ccc(Cl)cc34)cc2)CC1: 1110
- [2H]C([2H])([2H])N1C(=O)C2(CCN(CCOc3ccc(C4(S(=O)(=O)C(C)C)COC4)cc3)CC2)c2cc(Cl)ccc21: 347
- CC(C)[C@]1(O)C[C@@H](N2C(=O)CCc3cc(OCCN4CCC5(CC4)C(=O)Nc4ccc(Cl)cc45)cnc32)C1: 792
- CN1c2ccc(OCCN3CCC4(CC3)C(=O)Nc3ccc(C#N)cc34)cc2CCS1(=O)=O: 408
- CC(c1c(F)cc(OCCN2CCC3(CC2)C(=O)Nc2ccc(Cl)cc23)cc1F)S(C)(=O)=O (single isomer, unassigned) [Compound 143]: 701
- O=C1Nc2ccc(Cl)cc2C12CCN(CCOc1cnc(C3(O)CCC3)nc1)CC2: 518
- CN1C(=O)C2(CCN(CCOc3ccc(C4(S(C)(=O)=O)COC4)cc3)CC2)c2cc(C#N)ccc21: 546
- CS(=O)(=O)c1ccc(OCCN2CCC3(CC2)C(=O)N(CCO)c2ccc(C#N)cc23)cc1C(F)(F)F: 1010
- CNC(=O)c1ccc(OCCN2CCC3(CC2)C(=O)Nc2ccc(Cl)cc23)cc1F: 792
- N#Cc1ccc2c(c1)C1(CCN(CCOc3ccc4c(c3)CCN3C(=O)NCC43)CC1)C(=O)N2 (single isomer, unassigned) [Compound 120]: 1190
- CN1c2ccc(OCCN3CCC4(CC3)C(=O)Nc3ccc(Cl)cc34)cc2CCS1(=O)=O: 591
- CS(=O)(=O)C1(c2ccc(OCCN3CCC4(CC3)C(=O)Nc3ccc(C(F)F)cc34)cc2)CC(O)C1 (single isomer, unassigned): 1310
- CS(=O)(=O)C1(c2ccc(OCCN3CCC4(CC3)C(=O)N(CC(F)(F)F)c3ccc(Cl)cc34)cc2)COC1: 993
- CS(=O)(=O)N1CCc2cc(OCCN3CCC4(CC3)C(=O)Nc3ccc(Cl)cc34)ccc2C1: 794

====

System: Trypanosoma brucei Lister 427 VSG221 with APOL1 G1 recombinant protein
Assay: APOL1 G1 trypanosome cell rescue assay (Example B5)
Assay type: cell-based
Details: Trypanosoma brucei, 20 h, read-out: APOL1 G1 Trypanosome Rescue EC50, Trypanosoma brucei Lister 427 VSG221 with APOL1 G1 recombinant protein, 20 hours, CellTiter-Glo; geometric mean of at least 2 assay runs; † = single assay run
pEC50: −log10 of the molar value.
The entries below come with measured pEC50 values attached.
property.name: pEC50

- [2H]C([2H])(Oc1cnc2c(c1)CCC(=O)N2[C@H]1C[C@@](C)(O)C1)C([2H])([2H])N1CCC2(CC1)C(=O)Nc1ccc(Cl)cc12 [Compound 426]: 7.05
- N#Cc1ccc2c(c1)C1(CCN(CCOc3ccc(S(=O)(=O)C(F)F)cc3)CC1)C(=O)N2 [Compound 113]: 6.81
- NC(=O)c1ccc(OCCN2CCC3(CC2)C(=O)Nc2ccc(Cl)cc23)cc1 [Compound 45]: 6.13
- C[C@]1(O)C[C@@H](n2c(=O)[nH]c3cc(OCCN4CCC5(CC4)C(=O)Nc4ccc(C#N)cc45)cc(C(F)(F)F)c32)C1 [Compound 470]: 7.91
- NC(=O)c1ccc(OCCN2CCC3(CC2)C(=O)Nc2ccc(Cl)cc23)cc1F [Compound 46]: 6.67
- O=C1Nc2ccc(Cl)cc2C12CCN(CCOc1ccc(S(=O)(=O)C(F)F)cc1)CC2 [Compound 112]: 7.16
- CC(C)n1ncc2cc(OCCN3CCC4(CC3)C(=O)Nc3ccc(Cl)cc34)ccc21 [Compound 16]: 6.51
- CS(=O)(=O)C1(c2ccc(OCCN3CCC4(CC3)C(=O)Nc3ccc(C#N)cc34)cc2)CCC1 [Compound 181]: 6.63
- CN1C(=O)CCc2cc(OCCN3CCC4(CC3)C(=O)Nc3ccc(Cl)cc34)ccc21 [Compound 27]: 6.57
- C[C@@H](COc1ccc(S(C)(=O)=O)cc1)N1CCC2(CC1)C(=O)Nc1ccc(Cl)cc12 (single isomer, unassigned) [Compound 10]: 6.45
- C[C@]1(O)C[C@@H](N2C(=O)CCc3cc(OCCN4CCC5(CC4)C(=O)Nc4ccc(C#N)cc45)cnc32)C1 [Compound 404]: 6.26
- O=C1Nc2ccc(Cl)cc2C12CCN(CCOc1cnc(C3(O)CC3)nc1)CC2 [Compound 308]: 6.36
- C[C@]1(O)C[C@@H](N2C(=O)OCc3cc(OCCN4CCC5(CC4)C(=O)Nc4ccc(Cl)cc45)cnc32)C1 [Compound 289]: 7.28
- O=C(c1ccc(OCCN2CCC3(CC2)C(=O)Nc2ccc(Cl)cc23)cc1C(F)(F)F)N1CCS(=O)(=O)CC1 [Compound 272]: 7.14

====

Test system: HEK293 clonal cell line overexpressing APOL1 G1
Assay: APOL1 G1 HEK293 cell rescue assay (Example B3)
Type: cell-based
Settings: Homo sapiens, HEK293, HEK293 clonal line overexpressing APOL1 G1; geometric mean of at least 2 runs; † = single run; ¥ = concentration at 50% rescue estimated (no sigmoidal curve)
pEC50: −log10 of the molar value.
property.name: pEC50

* CN(c1ccc(OCCN2CCC3(CC2)C(=O)Nc2ccc(C#N)cc23)cc1)S(C)(=O)=O [Compound 75] | 6.39
* C[C@]1(O)C[C@@H](n2c(=O)oc3cc(OCCN4CCC5(CC4)C(=O)Nc4ccc(Cl)cc45)cnc32)C1 [Compound 394] | 7.11
* NC(=O)c1ccc(OCCN2CCC3(CC2)C(=O)Nc2ccc(Cl)cc23)cn1 [Compound 47] | 6.40
* C[C@@H](COc1ccc(S(C)(=O)=O)cc1)N1CCC2(CC1)C(=O)Nc1ccccc12 (single isomer, unassigned) [Compound 12] | 5.94
* [2H]C([2H])([2H])N1C(=O)C2(CCN(CCOc3ccc4c(c3)CN(C)C4=O)CC2)c2cc(Cl)ccc21 [Compound 416] | 6.42
* CC(C)(O)c1ncc(OCCN2CCC3(CC2)C(=O)Nc2c(I)cc(Cl)cc23)cn1 [Compound 449] | 6.61
* CN(c1ccc(OCCN2CCC3(CC2)C(=O)Nc2ccc(Cl)cc23)cc1)S(C)(=O)=O [Compound 76] | 6.72
* CS(=O)(=O)c1ccc(OCCN2CCC3(CC2)C(=O)Nc2ccc(Br)cc23)cc1 [Compound 72] | 6.79
* O=C(c1ccc(OCCN2CCC3(CC2)C(=O)N(CCO)c2ccc(Cl)cc23)cc1C(F)(F)F)N1CCS(=O)(=O)CC1 [Compound 271] | 6.47
* CS(=O)(=O)c1ccc(OCCN2CCC3(CC2)C(=O)Nc2ccc(Cl)cc23)cc1C(F)F [Compound 197] | 7.16
* CN1C(=O)CCc2cc(OCCN3CCC4(CC3)C(=O)Nc3ccc(C#N)cc34)ccc21 [Compound 95] | 6.34
* C[C@]1(O)C[C@@H](n2cnc3cc(OCCN4CCC5(CC4)C(=O)Nc4ccc(Cl)cc45)cc(C(F)F)c32)C1 [Compound 445] | 7.53
* N#Cc1ccc2c(c1)C1(CCN(CCOc3ccc4c(c3)CCN3C(=O)CCC43)CC1)C(=O)N2 (stereo not drawn) [Compound 124] | 6.04
* [2H]C([2H])([2H])N1C(=O)C2(CCN(CCOc3cnc(C(C)S(C)(=O)=O)nc3)CC2)c2cc(Cl)ccc21 (stereo not drawn) [Compound 425] | 6.57
